- measurementTarget: recombinant GST-COMMD4 (Homo sapiens)
- Construct: purchased Abnova H00054939-P01
- Sequence (Q9H0A8 whole entry): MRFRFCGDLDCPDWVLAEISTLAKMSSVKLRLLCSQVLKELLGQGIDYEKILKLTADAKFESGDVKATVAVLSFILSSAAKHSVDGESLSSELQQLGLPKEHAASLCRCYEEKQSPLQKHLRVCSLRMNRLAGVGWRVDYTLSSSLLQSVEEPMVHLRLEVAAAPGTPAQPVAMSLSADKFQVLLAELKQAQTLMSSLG
- testDescription: ELISA, binding of H2B peptide and recombinant COMMD4
- runParameters: H2B peptide 10 μg/ml on NeutrAvidin plate 2 h; recombinant GST-COMMD4 at different concentrations 45 min, room temperature; anti-COMMD4 antibody, chemiluminescent substrate
No end group written: not given here.
readoutKind: EC50 (nM)
Record the value in nM, omitting the unit from your answer.

Incoming: What does the record list as EC50 for SFVNDIFERI [H2BWTpep] ?
Outgoing: 70
